System: MDA-MB-231;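 further: breast cancer cell viability read out with the CCK-8 kit after co-treatment of each compound with the ferroptosis inducer RSL3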
Experiment: relative cell viability, compound + RSL3, vs DMSO (fraction of DMSO control); higher = less growth inhibition
Details: 72 h
property-measured: relative cell viability
Answers are plain numbers.

1) CCCCC[C@H](O)CC(=O)CCc1ccc(O)c(OC)c1 [6-Gingerol] + COC(=O)c1ccc([C@H]2c3[nH]c4ccccc4c3C[C@H](C(=O)OC)N2C(=O)CCl)cc1 [RSL3]: 0.483
2) C[C@@H]1O[C@@H](O[C@H]2[C@H](Oc3cc(O)c4c(c3)O[C@H](c3ccc(O)cc3)CC4=O)O[C@H](CO)[C@@H](O)[C@@H]2O)[C@H](O)[C@H](O)[C@H]1O [Naringin] + COC(=O)c1ccc([C@H]2c3[nH]c4ccccc4c3C[C@H](C(=O)OC)N2C(=O)CCl)cc1 [RSL3]: 0.658

Go through the items and report each one's relative cell viability.
1. NC(=O)c1ncn([C@@H]2O[C@H](CO)[C@@H](O)[C@H]2O)c1N [AICAR (Acadesine)] + COC(=O)c1ccc([C@H]2c3[nH]c4ccccc4c3C[C@H](C(=O)OC)N2C(=O)CCl)cc1 [RSL3]
2. CCC(=O)Nc1cccc(Oc2nc(Nc3ccc(N4CCN(C)CC4)cc3OC)ncc2Cl)c1 + COC(=O)c1ccc([C@H]2c3[nH]c4ccccc4c3C[C@H](C(=O)OC)N2C(=O)CCl)cc1 [RSL3]

1. 0.584
2. 0.3
